Biological target: MMP-9 (Homo sapiens, UniProt P14780)
Construct: from tissue; host or cells: human polymorphonuclear leukocytes (PMN) from whole blood (New York Blood Center), PMA-stimulated supernatant
Sequence (P14780 107-707 limits assumed): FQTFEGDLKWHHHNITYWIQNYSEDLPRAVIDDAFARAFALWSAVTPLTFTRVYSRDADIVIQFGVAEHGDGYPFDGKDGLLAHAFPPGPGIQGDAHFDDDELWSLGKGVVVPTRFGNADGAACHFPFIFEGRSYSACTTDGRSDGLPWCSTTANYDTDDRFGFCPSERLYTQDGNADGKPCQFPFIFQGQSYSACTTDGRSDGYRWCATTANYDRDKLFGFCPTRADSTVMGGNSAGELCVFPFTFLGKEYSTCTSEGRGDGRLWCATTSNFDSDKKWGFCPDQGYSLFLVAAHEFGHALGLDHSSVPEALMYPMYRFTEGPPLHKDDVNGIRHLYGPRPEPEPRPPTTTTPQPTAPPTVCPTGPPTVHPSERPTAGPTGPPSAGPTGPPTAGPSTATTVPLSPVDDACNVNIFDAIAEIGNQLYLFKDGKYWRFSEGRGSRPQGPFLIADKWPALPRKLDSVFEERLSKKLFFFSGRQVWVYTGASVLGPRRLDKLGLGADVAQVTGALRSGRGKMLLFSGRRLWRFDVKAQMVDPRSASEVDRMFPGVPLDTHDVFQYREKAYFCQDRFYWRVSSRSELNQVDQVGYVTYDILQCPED
Assay: Thiopeptilide MMP-9 Inhibition Assay
Assay type: biochemical
Settings: pH 6.5; x (n) = average of n determinations; read-out: MMP-9: Thiopep. IC50
pIC50: −log10 of the molar value.
# pIC50 listing for each entry below
Readout Name: pIC50

>>> print(df.to_string())
                                   compound  recorded_value
0  O=C(CC(CSc1ccccc1Br)C(=O)O)c1ccc(-c2ccc(Cl)cc2)cc1 (centres unmarked)            6.22
1  CCCC(CC(=O)c1ccc(-c2ccc(Cl)cc2)cc1)C(=O)O (centres unmarked)            5.66
2  COc1ccc(CSCC(CC(=O)c2ccc(-c3ccc(Cl)cc3)cc2)C(=O)O)cc1 (centres unmarked)            6.10
3  CC(C)CC(CC(=O)c1ccc(-c2ccc(Br)cc2)cc1)C(=O)O (centres unmarked)            5.92
4  O=C(O)CCC(=O)c1ccc(-c2ccc(Br)cc2)cc1 [Example 7, reference compound]            5.68
5  COC(=O)c1ccccc1S[C@H]1CC[C@H](C(=O)c2ccc(-c3ccc(Cl)cc3)cc2)[C@H]1C(=O)O (relative stereo)            6.07
6  O=C(CC(CCCc1ccccc1)C(=O)O)c1ccc(-c2ccc(C(F)(F)F)cc2)cc1 (centres unmarked)            5.35
7  O=C(O)[C@H]1[C@@H](Sc2ccc(F)cc2)CC[C@@H]1C(=O)c1ccc(-c2ccc(Cl)cc2)cc1 (relative stereo)            5.85

---

Reported values of log10 of IC50 for individual entries
Molecular target: MMP-9 (Homo sapiens, UniProt P14780)
Construct: from tissue; host or cells: human polymorphonuclear leukocytes (PMN) from whole blood (New York Blood Center), PMA-stimulated supernatant
Test: Thiopeptilide MMP-9 Inhibition Assay
Assay type: biochemical
Settings: pH 6.5; x (n) = average of n determinations; read-out: MMP-9: Thiopep. IC50
Readout Name: log10 of IC50 (log10 of the value in nM)

>>> print(df.to_string())
                                    compound  recorded_value
 0  CC(C)C[C@@H](CC(=O)c1ccc(-c2ccc(Cl)cc2)cc1)C(=O)O            3.34
 1  O=C(O)[C@@H]1CC[C@H]1C(=O)c1ccc(-c2ccc(Cl)cc2)cc1 (relative stereo)            3.43
 2  O=C(C[C@H](CSc1ccccc1)C(=O)O)c1ccc(-c2ccc(Cl)cc2)cc1            2.29
 3  Cc1ccc(-c2ccc(C(=O)CC(CC(C)C)C(=O)O)cc2)cc1 (centres unmarked)            3.08
 4  CC(C)(C)C(=O)SCC(CC(=O)O)C(=O)c1ccc(-c2ccc(Cl)cc2)cc1 (centres unmarked)            3.48
 5  O=C(CC(CSc1ccccc1F)C(=O)O)c1ccc(-c2ccc(Cl)cc2)cc1 (centres unmarked)            2.64
 6  O=C(CC(CSc1ccc(Cl)cc1)C(=O)O)c1ccc(-c2ccc(Cl)cc2)cc1 (centres unmarked)            2.59
 7  COc1cccc(SCC(CC(=O)c2ccc(-c3ccc(Cl)cc3)cc2)C(=O)O)c1 (centres unmarked)            2.78
 8  O=C(CC(CSCc1ccccc1)C(=O)O)c1ccc(-c2ccc(Cl)cc2)cc1 (centres unmarked)            3.08
 9  O=C(CC(CCCc1ccccc1)C(=O)O)c1ccc(-c2ccc(Cl)s2)cc1 (centres unmarked)            2.48
10  O=C(CC(Sc1ccccc1)C(=O)O)c1ccc(-c2ccc(Cl)cc2)cc1 (centres unmarked)            3.88
11  CCCOc1ccc(-c2ccc(C(=O)CC(CCCc3ccccc3)C(=O)O)cc2)cc1 (centres unmarked)            2.00
12  O=C(CC(CSc1ccc(Br)cc1)C(=O)O)c1ccc(-c2ccc(Cl)cc2)cc1 (centres unmarked)            2.31
13  O=C(CC(CSc1ccc(F)cc1)C(=O)O)c1ccc(-c2ccc(Cl)cc2)cc1 (centres unmarked)            3.02
14  O=C(CC(CSc1ccccc1C(=O)O)C(=O)O)c1ccc(-c2ccc(Cl)cc2)cc1 (centres unmarked)            3.68
15  O=C(O)[C@@H]1[C@@H](Sc2ccccc2)CC[C@H]1C(=O)c1ccc(-c2ccc(Cl)cc2)cc1            2.81
16  O=C(CC(CCCCc1ccccc1)C(=O)O)c1ccc(-c2ccc(Cl)cc2)cc1 (centres unmarked)            2.30
